The reported numbers originate from patent US12492163B2.

tested.target: mGAT2 (Mus musculus (Mouse))
Sequence (P31651 whole entry): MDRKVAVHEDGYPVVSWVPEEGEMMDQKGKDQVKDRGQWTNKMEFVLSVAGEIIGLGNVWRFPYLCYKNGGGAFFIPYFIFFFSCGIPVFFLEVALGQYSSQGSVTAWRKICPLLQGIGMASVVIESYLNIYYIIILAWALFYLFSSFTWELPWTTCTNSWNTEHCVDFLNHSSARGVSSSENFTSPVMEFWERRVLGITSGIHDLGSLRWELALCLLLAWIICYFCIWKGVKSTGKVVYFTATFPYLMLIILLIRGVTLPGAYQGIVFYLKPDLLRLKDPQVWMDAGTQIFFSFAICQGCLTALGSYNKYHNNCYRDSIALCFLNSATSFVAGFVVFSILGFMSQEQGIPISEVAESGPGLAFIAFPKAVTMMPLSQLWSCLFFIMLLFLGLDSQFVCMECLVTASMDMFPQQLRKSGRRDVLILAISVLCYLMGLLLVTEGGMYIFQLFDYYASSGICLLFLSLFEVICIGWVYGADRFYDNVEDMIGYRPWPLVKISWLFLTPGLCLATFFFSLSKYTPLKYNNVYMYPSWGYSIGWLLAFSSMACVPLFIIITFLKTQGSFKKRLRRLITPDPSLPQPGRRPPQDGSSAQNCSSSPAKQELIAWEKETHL
test.protocol: [3H]GABA uptake inhibition, mGAT2 in HEK293 cells
Assay type: cell-based
run.parameters: GABA reuptake
Reported values of pIC50 (+/−SEM) mGAT2 for individual entries

[
  {
    "chemical.smiles": "COc1ccccc1CNC[C@H](O)[C@H](Cc1ccccc1)NC1c2ccccc2-c2ccccc21",
    "pIC50 (+/−SEM) mGAT2": "4.88 +/− 0.07"
  },
  {
    "chemical.smiles": "O[C@@H](CNCC1CCCCC1)[C@H](Cc1ccccc1)NC1c2ccccc2-c2ccccc21",
    "pIC50 (+/−SEM) mGAT2": 4.97
  },
  {
    "chemical.smiles": "O[C@H](CNCc1ccccc1)[C@H](Cc1ccccc1)NC1c2ccccc2-c2ccccc21",
    "pIC50 (+/−SEM) mGAT2": "5.01 +/− 0.08"
  },
  {
    "chemical.smiles": "CC(C)(C)c1cccc(CNC[C@@H](O)[C@H](Cc2ccccc2)NC2c3ccccc3-c3ccccc32)c1",
    "pIC50 (+/−SEM) mGAT2": 4.58
  },
  {
    "chemical.smiles": "COc1cccc(CNC[C@H](O)[C@H](Cc2ccccc2)NC2c3ccccc3-c3ccccc32)c1",
    "pIC50 (+/−SEM) mGAT2": "4.92 +/− 0.14"
  }
]

----------
Reported values of pIC50 (+/−SEM) mGAT1 for individual entries
tested.target: UniProt:P31648
test.protocol: [3H]GABA uptake inhibition, mGAT1 in HEK293 cells
Assay type: cell-based
run.parameters: GABA reuptake
property: pIC50 (+/−SEM) mGAT1

[
  {
    "chemical.smiles": "CC(C)(C)CNC[C@@H](O)[C@H](Cc1ccccc1)NC(=O)CC1c2ccccc2-c2ccccc21",
    "property": "pIC50 (+/−SEM) mGAT1",
    "test.result": 4.32
  },
  {
    "chemical.smiles": "O[C@H](CNCc1ccccc1)[C@H](Cc1ccccc1)NC1c2ccccc2-c2ccccc21",
    "property": "pIC50 (+/−SEM) mGAT1",
    "test.result": 4.96
  },
  {
    "chemical.smiles": "O=C(CC1c2ccccc2-c2ccccc21)N[C@@H](Cc1ccccc1)[C@@H](O)CNCc1ccccc1",
    "property": "pIC50 (+/−SEM) mGAT1",
    "test.result": 4.85
  }
]

----------
Reported values of percentage of [3H]GABA reuptake retained, mGAT2 for individual entries
tested.target: mGAT2 (Mus musculus (Mouse))
test.protocol: [3H]GABA uptake inhibition, mGAT2 in HEK293 cells
Assay type: cell-based
run.parameters: inhibitor at 100 μM; remaining reuptake
property: percentage of [3H]GABA reuptake retained, mGAT2

[
  {
    "chemical.smiles": "O[C@H](CNCC1CC1)[C@H](Cc1ccccc1)NC1c2ccccc2-c2ccccc21",
    "test.result": "51%"
  },
  {
    "chemical.smiles": "C[C@H](NC[C@@H](O)[C@H](Cc1ccccc1)NC(=O)C1c2ccccc2-c2ccccc21)c1ccccc1",
    "test.result": "97%"
  },
  {
    "chemical.smiles": "CC(C)(C)CNC[C@@H](O)[C@H](Cc1ccccc1)NC(=O)CC1c2ccccc2-c2ccccc21",
    "test.result": "52%"
  },
  {
    "chemical.smiles": "O=C(CC1c2ccccc2-c2ccccc21)N[C@@H](Cc1ccccc1)[C@H](O)CNCC1CC1",
    "test.result": "10%"
  },
  {
    "chemical.smiles": "CC(C)(C)c1ccc(CNC[C@H](O)[C@H](Cc2ccccc2)NC(=O)CC2c3ccccc3-c3ccccc32)cc1",
    "test.result": "114%"
  }
]
